Hi there, I'd appreciate the recorded log10 IC50 for every entry that follows.
Target: human cathepsin S (CatS) (Homo sapiens, UniProt P25774)
Construct: made in house; host or cells: baculovirus system (insect cells)
Sequence (P25774 115-331): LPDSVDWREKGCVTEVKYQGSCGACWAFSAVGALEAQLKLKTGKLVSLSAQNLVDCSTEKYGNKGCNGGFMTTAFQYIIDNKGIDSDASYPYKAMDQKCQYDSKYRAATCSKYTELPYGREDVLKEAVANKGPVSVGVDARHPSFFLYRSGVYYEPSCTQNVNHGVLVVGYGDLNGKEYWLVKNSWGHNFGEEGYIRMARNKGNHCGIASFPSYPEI
Assay: Recombinant human cathepsin S (CatS) fluorogenic substrate inhibition assay
Assay type: biochemical
Settings: recombinant human CatS, 10 μM Z-Valine-Valine-Arginine-AMC, pH 5.0; average of results obtained; read-out: CatS IC50
A difference of one corresponds to tenfold IC50; all values are log10 with IC50 in nM.

Prompt line: Answer with reported log10 IC50 of Cc1csc(C(=O)NCc2cc(-c3nn(CC(O)CN4CCC(N5CCCC5=O)CC4)c4c3CN(S(C)(=O)=O)CC4)ccc2C(F)(F)F)c1Cl (stereo not shown) [Example 136]
Response line: 2.61

Prompt line: Write down log10 IC50 measured for item CC(C)CC(=O)NCc1cc(-c2nn(CC(O)CN3CCC(N4CCOCC4)CC3)c3c2CN(S(C)(=O)=O)CC3)ccc1C(F)(F)F (stereo not shown) [Example 254]
Response line: 2.08

Prompt line: For CSCC(=O)NCc1cc(-c2nn(CCCN3CCC(N4CCCC4=O)CC3)c3c2CN(S(C)(=O)=O)CC3)ccc1C(F)(F)F [Example 125] , write its log10 IC50.
Response line: 2.30

Prompt line: // Input: CC(C)=CC(=O)NCc1cc(-c2nn(CC(O)CN3CCC(n4cn[nH]c4=O)CC3)c3c2CN(S(C)(=O)=O)CC3)ccc1C(F)(F)F (stereo not shown) [Example 268] . Output its log10 IC50 only.
Response line: 1.00

Prompt line: Please give measured log10 IC50 of the following entry: CS(=O)(=O)N1CCc2c(c(-c3ccc(Cl)c(CNc4cccc(-c5ccccc5)c4)c3)nn2CCCN2CCC(N3CCCC3=O)CC2)C1 [Example 210]
Response line: 2.80

Prompt line: // fetch log10 IC50 given entry CC(O)CC(=O)NCc1cc(-c2nn(CCCN3CCC(N4CCCC4=O)CC3)c3c2CN(S(C)(=O)=O)CC3)ccc1C(F)(F)F (stereo not shown) [Example 131]
Response line: 2.43

Prompt line: Dear colleague, please send me the reported log10 IC50 for CS(=O)(=O)N1CCc2c(c(-c3ccc(C(F)(F)F)c(CNC(=O)CN4CCCC4=O)c3)nn2CCCN2CCC(N3CCCC3=O)CC2)C1 [Example 182] when you can.
Response line: 2.95

Prompt line: // Input: CS(=O)(=O)N1CCc2c(c(-c3ccc(C(F)(F)F)c(CNC(=O)CO)c3)nn2CCCN2CCC(N3CCCC3=O)CC2)C1 [Example 187] . Output its log10 IC50 only.
Response line: 3.26

Prompt line: Give the value of log10 IC50 reported for the following: CS(=O)(=O)N1CCc2c(c(-c3ccc(Cl)c(NC(=O)c4ccc(Cl)cc4)c3)nn2CCCN2CCN(c3cccc(Cl)c3)CC2)C1 [Example 200]
Response line: 2.78

Prompt line: Please give the documented log10 IC50 of CS(=O)(=O)N1CCc2c(c(-c3ccc(C(F)(F)F)c(CNC(=O)c4ccc(Cl)s4)c3)nn2CC(O)CN2CCC(N3CCCC3=O)CC2)C1 (stereo not shown) [Example 6]
Response line: 1.48

Prompt line: Please give measured log10 IC50 of the following entry: CS(=O)(=O)N1CCc2c(c(-c3ccc(C(F)(F)F)c(CNC(=O)c4cccnc4)c3)nn2CC(O)CN2CCC(N3CCCC3=O)CC2)C1 (stereo not shown) [Example 126]
Response line: 2.32

Prompt line: Complete the entry with log10 IC50 for CC(C)CC(=O)NCc1cc(-c2nn(CC(O)CN3CCC(O)(c4ccccn4)CC3)c3c2CN(S(C)(=O)=O)CC3)ccc1C(F)(F)F (stereo not shown) [Example 258]
Response line: 1.60

Prompt line: Given CC(C)c1cccc(NCc2cc(-c3nn(CCCN4CCC(N5CCCC5=O)CC4)c4c3CN(S(C)(=O)=O)CC4)ccc2Cl)c1 [Example 211] , respond with its log10 IC50.
Response line: 2.57
